METHOD_SUMMARY: yeast display, Sf9 membrane polyspecificity reagent, FACS + sequencing; frameworks hold sequencing errors
READOUT_LABEL: polyreactivity (PSR sort gate)

Some sequences with recorded polyreactivity (PSR sort gate):
QVQLVESGGGLVQARGSLRLICAASGRTFEHNSMGWYRQAPGKERELVARITSGGRTYYADSVKGRFTISRDNAKNTVYLQMNSLKPEDTAVYYCATVGRGYDERHNYWGQGTQVTVSS    high polyreactivity
QVQLVESGGGLVQAGGSLRLSCAASGFTFRGNAMGLYRQAPRKERELVATITYNAGSTYYADSVKGRFTISRDNAKNTVYLQMNSLKPEDTAVYYCAVELDSVPDYEPWTEYDYWGQGTQVTVSS    low polyreactivity
QVQLVESGGGLVQAGGSLRLSCAASGFTISFYAMGWYRQAPGKERELVAAITWNGGNTYYADSVKGRFTISRDNAKNTVYLQMNSLKPEDTAVYYCNKDSYYYHFDYWGQGTQVTVSS    high polyreactivity
QVQLVESGGGLVQAGGSLRLTCAASGLFYAMGWYRQAPGKQRELVAAISSVGSTNYADSVKGRFTISRDNAKNTVYLQMNSLKPEDTAVYYCAAYFYTYPVDRYGSYYWGQGTQLTVSS    low polyreactivity
QVQLVESGGGLVQAGGSLRLSCAASGRTFTIYAMGWYRQAPGKEREFVASITGSDGSTYYADSVKGRFTISRDNAKNTVYLQMNSLKPEDTAVYYCAAKRYVYPSYRFDYWGQGTQVTVSS    low polyreactivity
QVQLVESGGGLVQAGGSLRLSCAASGFIFDWNAMGWYRQAPGKERELVAAITWGGDGTFYADSVKGRFTISRDNAKNTVYLQMNSLKPEDTAVYYCAADSDSSFWWYYSWGQGTQVTVSS    low polyreactivity
QVQLVDSGGGLVQAGGSLRLSCAASGRIFYSYAMGWYRQAPGKERELVAAISRSGGRTYYADSVKARFTISRDNAKNTVYFQMNSLKPEDTAVYYCAADGRVGEEEYWGQGTQVTVSS    high polyreactivity
QVKLVESGGGLDQAGGSLRLSCAAYGSIFGDYVMGWYRQAPGKEMEFVAAISGSGGSTYYADSVKWRFTISRVNAKNTVYLQMNCLKPEDTAVYYCSTSGPQYYSRNLDYWGQGTQVTVSS    low polyreactivity

q: Annotate the sequence `QVQLVESGGGLFQAGGSLRLSCAASGRTIQTYTMGRYRQAPGKERELYAVITTRGGRTYYADSVKGRFTISRDNAKNTFYLQINRLKPEDTGVYYCIKGIPTRSVRSYDYWGQGTQVTVSS` with its measured polyreactivity (PSR sort gate).
a: high polyreactivity

q: Output polyreactivity (PSR sort gate) of `QVQLVESGGGLVQAGGSLRLSCAASGRIFRGYAMGWYRQAPGKERELVADISSGASTNYADSVKGRFTISRDNAKNTVYLQMNSLKPEDTAVYYCAAQHSVLAYFEYDYWGQGTQVTVSS`
a: low polyreactivity

q: State its polyreactivity (PSR sort gate): `QVQLVESGGGLVQAGGSLRLSCDASGLTFPSYAMGWYRQAPGKERELVAAISSGDSTNYADSVKGRFTISRDNAKNTVYLQMNSLKPEDTAVYYCAVGLPHGGRRLYGSWYRFDYWGQGTQVTVSS`
a: low polyreactivity

----------
METHOD_SUMMARY: yeast display, Sf9 membrane polyspecificity reagent, FACS + sequencing; frameworks hold sequencing errors
READOUT_LABEL: polyreactivity (PSR sort gate)

Consider the reported polyreactivity (PSR sort gate) for these sequences:
QVQLVESGGGLVQAGGSLRLSCAASGSISSQYGMGWYRQAPGKERELVATIRDGGRTNYADSVKGRFTISRDNAKNTVYLQMNCLKPEDTAVYYCAALYWYYYTWPLYDYWGQGSQVTVSS    low polyreactivity
QVQLVESGGGLVQAGGSHRLSCSASGRIFGLYAMGWYRQAPGKERELVAAITSSTGSTYYADSVKGRFTISRDNAKNTVYLQMNSLKPEDTAVYYCAADLYSPSIYGYIYYTWLDYWGQGTQVTVSS    high polyreactivity
QVQLVESGGGLVQAGGSLRLSCAASGFTFPEYSMGWYRQAPGKERELVAAITRRGTTTYYADSVKGRFTISRYTAKNTVYLQMNILKPEDTAVYYCAALAWSAYDYWGQGTQVTVSS    high polyreactivity
QVQLVESGGGLVQAGGSLRLSCAASGIIFYFYARGWYRQAPGKETELVAANSRGGSTKYADSVKGRFTISRDNAKNTVYLLMYSLKPEDTAFYYCNARVRGVRQGIMDYWGQGTQVSVSS    high polyreactivity
QVQLVESGGGLVQAGGSLRLSCAASGSIFKLYAMGWYRQAPGKERELVASISVSGGSTYYADSVKGRFTISRDNAKNTVYLQMNSLKPEDTAVYYCAAEKRSSIVGSGGNYWGQGTQVTVSS    low polyreactivity

q: Give the reported polyreactivity (PSR sort gate) for this sequence. `QVQLVESGGGLVQAGGSLRLSCAASGYIFATNAMGWYRQSPGKERELVAAITRSGGRTYYADSVKGRFTISRDNAKNTVYLQMNSLKPEDTAVYYCAAARPTNIYYYWGQGTQVTVSS`
a: high polyreactivity

q: // fetch polyreactivity (PSR sort gate) given entry `QVQLVESGGGLFQAGGSLRLSCAASGFTFTRYAMGWYRQAPGKERELVATITKRGGSTYYADSVKGRFTISRDNAKNTVYLQMNRLKPEDTAVYYCAADGASRALYDYWGQGTQVTVSS`
a: high polyreactivity

q: Please give measured polyreactivity (PSR sort gate) of the following entry: `QVQLVESGGGLVQAGGSLRLSCAASGSIFDSNAMGWYRQAPGKERELVAAIDDSGATTYYADSVKGRFTISPDNAKNTVYLQLNSLKPEDTAVYYCAAETYTGSLAYYREYYYWGQGTQVTVSS`
a: low polyreactivity

q: For the sequence `QVQLVESGGGLVQAGGSLRLSCAASGSTFYLYAMGWYRQAPWKEREFVARITWSGGSTYYADSVKGRFTISRDNAKNTVYLQMNSLKPEDTAVYYCNATKTGPATVRYYYWGQGTQVTVSS` , give its reported polyreactivity (PSR sort gate).
a: high polyreactivity

q: Supply recorded polyreactivity (PSR sort gate) for `QVQLVESGGGLVQAGGSLRLSCAASGSTYRLYAMGWYRQAPGKERELVAAITWRGTTYYADSVKGRFTISRDNAKNTVYLQMNSLKPEDTAVYYCAARAPVAGYKYRYDYWGQGTQVTVSS` here.
a: high polyreactivity

q: Recall and state the measured polyreactivity (PSR sort gate) for `QVQLVESGGGLVQAGGSLRLSCAASGITFISYAMGWYRQAPGKERELVAVISKSGGRTYYADSVKGRFTISRDNAKNTVYLQMNSLKPEDTAVYYCAATKRYASGMYYWGQGTQVTVSS` .
a: high polyreactivity
